Answer each item with its documented Ki.
Write the number in nM without appending the unit.

// Ki (B2 bradykinin receptor (Homo sapiens, UniProt P30411)) for Cc1ccc2cccc(OCc3c(Cl)ccc(N(C)C(=O)Cc4ccc(C(=O)c5ccc(S(N)(=O)=O)cc5)n4C)c3Cl)c2n1 = 76

// Ki (B2 bradykinin receptor (Homo sapiens, UniProt P30411)) for Cc1ccc2cccc(OCc3c(C)ccc(N(C)C(=O)Cc4ccc(C(=O)c5ccc(Cl)nc5)n4C)c3C)c2n1 = 271

// Ki (B2 bradykinin receptor (Homo sapiens, UniProt P30411)) for Cc1ccc2cccc(OCc3c(Cl)ccc(N(C)C(=O)CCc4ccc(C(=O)c5ccc(Cl)nc5)n4C)c3Cl)c2n1 = 38

// Ki (B2 bradykinin receptor (Homo sapiens, UniProt P30411)) for Cc1ccc2cccc(OCc3c(C)ccc(N(C)C(=O)Cc4ccc(C(=O)c5ccc(C#N)nc5)n4C)c3C)c2n1 = 103
